Test system: MDA-MB-231 breast
Experiment: NCI-60 one-dose screen, 48 h (100 = growth as untreated, 0 = no growth, -100 = all killed)
Details: 10 µM unless noted
About 83,000 compounds went through this panel and 20% of them were active in at least one assay; those are over-represented in the sample as a whole.
observedProperty: growth (%)

1) CN1CCN(Cc2ccc(NC(=O)c3cncc(C#Cc4cnc(N)c5ccccc45)c3)cc2C(F)(F)F)CC1 :: -86.2
2) CN(C)Cc1ccc(NC(=O)c2cncc(C#Cc3cnc(N)c4ncccc34)c2)cc1F :: -73.1
3) C/C(Nc1ccc(Cl)c(Cl)c1)=C1\CCOC1=O :: 95
4) CC1(C)c2[nH]c3ccccc3c2C[C@]2(C)[C@H]3CC=C4[C@@H]5C[C@@](C)(C(N)=O)CC[C@]5(C)CC[C@@]4(C)[C@]3(C)CC[C@@H]12 :: 65.8
5) Brc1c2c(c(Br)c3ccccc13)CCCC2 :: 91
6) COc1ccc(C(=O)Nc2ncc(Cc3ccc(F)cc3)s2)cc1 :: 29.6
7) O=C(Nc1cc(Cl)ccc1O)c1ccc(Nc2ccnc(C(F)(F)F)c2)cc1 :: 68.1
8) COc1ccc2[nH]cc(-c3nc(-c4cn(C)c5c(Cl)nccc45)cs3)c2c1 :: 48.2
9) O=S(=O)(NCCNc1nccc(-c2c(-c3cccc(F)c3)nc3occn23)n1)c1ccc(Br)cc1 :: 82.3
10) CCCCOC(=O)OCc1cc(=O)c(O)co1 :: 114
11) O=C(Cn1c2c(c3ccccc31)CCCC2)Nc1ccc(-c2nc3ccccc3s2)cc1 :: 96
12) O=C(/C=C/c1cccs1)c1ccc(Cl)nc1 :: 116
13) N#Cc1c(NC(=O)c2ccccc2)sc2c1CCC(=O)C2 :: -11.3
14) Cc1ccc2c3c(c(=O)[nH]c2c1)C1(C(C#N)=C(N)O3)c2cc(Br)ccc2-c2ccc(Br)cc21 :: -33.9
15) C=C(CNCCc1ccc(O)cc1)[C@@H]1CC[C@]2(CO)CC[C@]3(C)[C@H](CC[C@@H]4[C@@]5(C)CCC(NCCO)C(C)(C)[C@@H]5CC[C@]43C)[C@@H]12 (some centres undefined) :: -77.6
16) CC1(C)CC[C@]2(c3nnc(-c4ccncc4)o3)CC[C@H]3C(=CC[C@H]4[C@@]3(C)CC[C@H]3C(C)(C)C(=O)CC[C@]43C)[C@@H]2C1 :: 72.8
17) O=C1c2cccc3cccc(c23)C(=O)N1N1C(=O)c2cccc3c(N4CCOCC4)ccc(c23)C1=O :: 76.3
18) O=C1Nc2ccc(I)cc2C1=O :: 93.5
19) N#C/C(=C/c1ccc([N+](=O)[O-])cc1)n1nnc2cc(F)c(F)cc21 :: 84.7

###

System: SK-OV-3 ovarian
Assay: NCI-60 one-dose screen, 48 h
Conditions: 10 µM unless noted
The panel holds about 83,000 compounds, 20% with a hit somewhere; the sample as a whole holds those more often. Activity calls are given as the source filed them. How the source made its calls: active means growth percent below 10; inactive means the rest.
Possible outcomes: active, inactive

1. N#Cc1c(N)nnn1Cc1cc(=O)oc2c1ccc1ccccc12 :: inactive
2. CC1(C)CC[C@]2(C(=O)O)CC[C@]3(C)C(=CC[C@@H]4[C@@]5(C)C/C(=C/O)C(=O)C(C)(C)[C@@H]5CC[C@]43C)[C@@H]2C1 :: inactive
3. Fc1ccc(-c2nn(-c3ccccc3)cc2-c2nc3ccccc3o2)cc1 :: inactive
4. CC1=Nc2cnc(Nc3ccc(OCCN4CCCCC4)cc3)nc2Nc2ccccc21 :: inactive
5. O=C(Cn1cc(CN2C(=O)c3ccccc3S2(=O)=O)nn1)Nc1nc2ccccc2s1 :: inactive
6. COc1ccc(C(c2cc(OC)c(OC)c(OC)c2)N2CCN(c3ccccc3)CC2)cc1 (stereo not drawn) :: inactive
7. CCOC(=O)/C=C1\S/C(=N\Nc2cc(=O)[nH]c3ccc(Cl)cc23)N(c2ccccc2)C1=O :: inactive
8. O=C1c2ccc3c4ccc5c6c(ccc(c7ccc(c2c37)C(=O)N1CCC[P+](c1ccccc1)(c1ccccc1)c1ccccc1)c64)C(=O)N(CCC[P+](c1ccccc1)(c1ccccc1)c1ccccc1)C5=O :: inactive
9. COc1cc(CNS(=O)(=O)c2ccc(C)cc2)ccc1OCc1cn(-c2ccc(Br)cc2)nn1 :: inactive
10. C=C(C)[C@@H]1CC[C@]2(C(=O)N3CCN(C)CC3)CC[C@]3(C)[C@H](CC[C@@H]4[C@@]5(C)CC(=C/c6ccncc6)/C(=N/O)C(C)(C)[C@@H]5CC[C@]43C)[C@@H]12 :: inactive
11. COc1ccc(-c2nc(SCC(C)C)nc(N/N=C\c3ccc(F)cc3)c2C#N)cc1 :: inactive
12. Brc1c2c(c(Br)c3ccccc13)CCCC2 :: inactive
13. OCc1cccc(-c2ccc3ncc(-c4nc(NC5CC5)ncc4F)n3c2)c1 :: inactive
14. O=C(NNC(=O)c1ccc(-n2cc(-c3ccccc3)nn2)cc1)Nc1ccccc1 :: inactive
15. COC(=O)c1ccc2c(c1)C(=O)c1c-2n(CCCN)c(=O)c2cc([N+](=O)[O-])ccc12 :: active
16. CC1=Nc2cnc(Nc3ccc(OCCN4CCCC4)cc3)nc2Nc2ccccc21 :: inactive
17. N#C/C(=C\c1ccc2ccccc2c1)c1cc2ccccc2[nH]1 :: inactive
18. Oc1c(Cl)cc(Cl)c2ccc(Cn3cc(-c4cc(C(F)(F)F)cc(C(F)(F)F)c4)nn3)nc12 :: inactive

Each recorded value in this set is attributed to PubChem BioAssay (NCI).
